System: Calf thymus DNA
experiment description: Binding affinity to calf thymus DNA by UV-Visible absorption spectroscopy
Assay type: nucleic-acid assay
condition details: Bos taurus
// reported Kb per item
Answer in ×10⁴ /M, number only, no unit symbol.

Below are worked cases with known answers.
O=C1NC(=S)S/C1=C\c1c[nH]c2ccccc12; 4.51
O=C1NC(=S)N/C1=C\c1c[nH]c2ccccc12; 6.27
NN1C(=O)/C(=C/c2c[nH]c3ccccc23)SC1=S; 5.69
O=C1NC(=O)/C(=C/c2c[nH]c3ccc(Br)cc23)S1; 5.24
O=C1NC(=S)S/C1=C\c1c[nH]c2ccc(Br)cc12; 1.56
O=C1NC(=O)/C(=C/c2c[nH]c3ccccc23)S1; 7.26

Record lookup: for Calf thymus DNA, what Kb belongs to `NN1C(=O)/C(=C/c2c[nH]c3ccc(Br)cc23)SC1=S` ? 1.84

src = ChEMBL document CHEMBL4138112
